assay.target: EGFR (L858R T790M C797S) (Homo sapiens, UniProt P00533, C797S/L858R/T790M)
Construct: purchased SignalChem E10-122VG
Sequence (P00533 25-1210 T790M/C797S/L858R): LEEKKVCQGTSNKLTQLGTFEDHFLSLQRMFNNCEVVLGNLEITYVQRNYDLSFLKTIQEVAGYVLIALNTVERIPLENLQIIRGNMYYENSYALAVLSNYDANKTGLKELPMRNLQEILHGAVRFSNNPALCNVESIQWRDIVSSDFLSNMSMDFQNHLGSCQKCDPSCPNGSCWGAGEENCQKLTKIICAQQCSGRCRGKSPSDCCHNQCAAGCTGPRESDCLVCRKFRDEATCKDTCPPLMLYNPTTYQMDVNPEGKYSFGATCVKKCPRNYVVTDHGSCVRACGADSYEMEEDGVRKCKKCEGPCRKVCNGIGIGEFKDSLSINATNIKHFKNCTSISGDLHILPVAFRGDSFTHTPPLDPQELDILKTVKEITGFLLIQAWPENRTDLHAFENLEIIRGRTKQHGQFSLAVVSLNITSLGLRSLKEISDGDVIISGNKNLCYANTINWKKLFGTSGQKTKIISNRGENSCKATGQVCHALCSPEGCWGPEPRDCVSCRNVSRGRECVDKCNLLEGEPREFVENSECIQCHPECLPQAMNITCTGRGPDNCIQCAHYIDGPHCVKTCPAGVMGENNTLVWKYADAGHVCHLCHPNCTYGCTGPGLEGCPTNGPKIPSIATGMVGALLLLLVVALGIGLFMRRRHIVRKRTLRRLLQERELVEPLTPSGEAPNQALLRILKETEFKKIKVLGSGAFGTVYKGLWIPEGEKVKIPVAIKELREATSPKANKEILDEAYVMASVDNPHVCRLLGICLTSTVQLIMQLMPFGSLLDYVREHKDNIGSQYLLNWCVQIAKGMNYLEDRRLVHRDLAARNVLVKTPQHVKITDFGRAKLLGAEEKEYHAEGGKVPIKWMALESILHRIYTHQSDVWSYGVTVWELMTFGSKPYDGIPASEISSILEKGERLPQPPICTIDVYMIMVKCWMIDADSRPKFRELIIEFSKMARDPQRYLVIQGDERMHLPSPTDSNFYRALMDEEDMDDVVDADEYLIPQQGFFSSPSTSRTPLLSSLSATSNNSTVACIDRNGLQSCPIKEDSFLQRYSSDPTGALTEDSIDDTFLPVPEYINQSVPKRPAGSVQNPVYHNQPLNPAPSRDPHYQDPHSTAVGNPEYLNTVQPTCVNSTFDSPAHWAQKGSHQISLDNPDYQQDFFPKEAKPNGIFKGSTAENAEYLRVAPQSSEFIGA
method.summary: Biochemical EGFR inhibition assay (Caliper mobility shift), EGFR LRTMCS
applied.conditions: LRTMCS (PH) IC50 (nM) @ 1 mM ATP (Num), EGFR LRTMCS mutant
readout.label: IC50

Illustrative cases are given below, each with its answer.
CC(C)c1cnc(N2CC[C@H]2CO)c2cnc(Nc3ccnc(N4CC[C@@H](O)[C@@](C)(F)C4)n3)cc12 :: < 15 nM
C[C@@H]1CCN1c1ncc([C@@H](C)OCC2COC2)c2cc(Nc3ccnc(N4CC[C@@H](O)[C@@](C)(F)C4)n3)ncc12 (single isomer, unassigned) [Example 183] :: 30 to 100 nM
CC(C)c1ncc(-c2ncn(C)n2)c2cnc(Nc3ccnc(N4CC[C@@H](O)[C@@](C)(F)C4)n3)cc12 :: < 15 nM

Report IC50 for each item below.
1. C[C@@H]1CCN1c1ncc([C@@H](C)OCC2COC2)c2cc(Nc3ccnc(N4CC[C@@H](O)[C@@](C)(F)C4)n3)ncc12 (single isomer, unassigned) [Example 184]
2. C[C@@H]1[C@@H](O)CN1c1ncc(C2CC2)c2cc(Nc3ccnc(N4CC[C@@H](O)[C@@](C)(F)C4)n3)ncc12
3. CC(C)c1cnc(N2CC(O)C2)c2cnc(Nc3ccnc(N4CC[C@@]5(CCO5)C(F)(F)C4)n3)cc12 (single isomer, unassigned)

stdout:
1: 20 to 30 nM; 2: 20 to 30 nM; 3: < 15 nM
